Kindly state pIC50 for each of the entries shown.
Keep it numeric: pIC50 is minus log10 of the concentration in mol/L.

Request: Please indicate recorded pIC50 of Nc1cccc(C[C@H]2CNC[C@H]2NCCNCc2ccccc2)n1 (racemic) measured with murine iNOS (Mus musculus).
Response: 3.45

Request: Look up and report measured pIC50 (murine iNOS (Mus musculus)) for the following compound: Cl.Cl.Cl.Cl.Nc1cccc(CC2CNCC2NCC2CCCN2)n1 (centres unmarked) [Compound P-24]
Response: 3.17

Request: Quote murine iNOS (Mus musculus) pIC50 for entry Nc1cccc(CC2CNCC2NC2CCN(Cc3ccccc3)C2)n1 (centres unmarked) [Compound P-37] .
Response: 3.30

Request: Given Cc1cc(N)nc(C[C@H]2CNC[C@H]2NCCN)c1.Cl.Cl.Cl.Cl (racemic) , report its pIC50 on murine iNOS (Mus musculus).
Response: 4.92

Request: Answer briefly: pIC50 recorded on murine iNOS (Mus musculus) for Nc1cccc(CC2CNCC2NC2CCN(Cc3ccccc3)C2)n1 (centres unmarked) [Compound P-36]
Response: 3.31

Request: Please respond with reported pIC50 (system murine iNOS (Mus musculus)) for Nc1cccc(CC2CNCC2NCC(N)Cc2ccccc2)n1 (racemic) [Compound P-17] .
Response: 3.04

Request: Enter measured pIC50, system murine iNOS (Mus musculus), for the compound shown: Nc1cccc(CC2CNCC2NC2CCN(Cc3ccccc3)C2)n1 (racemic) [Compound P-21]
Response: 3.20

Request: Tell me pIC50 of Cl.Cl.Cl.Cl.Nc1cccc(C[C@@H]2CNC[C@@H]2NC[C@@H]2CCCN2)n1 when tested on murine iNOS (Mus musculus).
Response: 4.23

Request: Name the recorded pIC50 of Cl.Cl.Cl.Nc1cccc(CC2CNCC2NCCCc2ccccc2)n1 (racemic) , assay system murine iNOS (Mus musculus).
Response: 3.50

Request: Output reported pIC50 of the compound Nc1cccc(CC2CNCC2NC2CCNC2)n1 (racemic) [Compound P-35] on murine iNOS (Mus musculus).
Response: 3.36

Request: // output pIC50; input Cl.Cl.Cl.Cl.NCCN1CC(Cc2cccc(N)n2)C(NCCCc2ccccc2)C1 (racemic) [Compound P-9] ; system murine iNOS (Mus musculus)
Response: 3.19

Request: Fill in pIC50 for Cl.Cl.Cl.Nc1cccc(C[C@H]2CN(Cc3ccccc3)C[C@@H]2NCCCO)n1 (racemic) tested with murine iNOS (Mus musculus).
Response: 2.41

Request: Consider the compound Nc1cccc(CC2CNCC2NC2CCN(Cc3ccccc3)C2)n1 (racemic) [Compound P-22] tested on murine iNOS (Mus musculus); state its pIC50.
Response: 3.34

Request: Please report pIC50 with murine iNOS (Mus musculus) for item Nc1cccc(CC2CNCC2NCC(N)Cc2ccccc2)n1 (racemic) [Compound P-16] .
Response: 3.18

Request: Write pIC50 of Cc1cc(N)nc(C[C@H]2CNC[C@@H]2NCCN)c1.Cl.Cl.Cl.Cl (racemic) ; system used: murine iNOS (Mus musculus)
Response: 4.15

Request: Enter pIC50 (test system murine iNOS (Mus musculus)) for Cl.Cl.Cl.Cl.Nc1cccc(C[C@@H]2CNC[C@@H]2NC[C@H]2CCCN2)n1
Response: 4.03

Request: Supply pIC50 measured with murine iNOS (Mus musculus) for Nc1cccc(CC2CNCC2NCC(N)Cc2ccccc2)n1 (racemic) [Compound P-31] .
Response: 3.28

###

# STUDY_TARGET: rat nNOS (Rattus norvegicus, UniProt P29476)
# Construct: made in house; host or cells: E. coli (plasmid pCWnNOS)
# ASSAY_COMMENT: NOS enzyme inhibitory assay (hemoglobin capture), nNOS
# Type: biochemical
# CONDITION_DETAILS: Table 1a; Ki(iNOS)/Ki(nNOS)
Short version: Selectivity n/i at least 100 is Fulfilled, less is Not fulfilled.

Request: # check: Selectivity n/i of Cl.Cl.Cl.Nc1cccc(CC2CN(Cc3ccccc3)CC2NCCCO)n1 (racemic) is greater than or equal to 100
Response: Not fulfilled

Request: Item Nc1cccc(C[C@H]2CNC[C@H]2NCCNCc2ccccc2)n1 (racemic) with Selectivity n/i of 100 or above?
Response: Fulfilled

Request: Quick check, Selectivity n/i >= 100? Nc1cccc(CC2CNCC2NC2CCN(Cc3ccccc3)C2)n1 (centres unmarked) [Compound P-39]
Response: Not fulfilled

Request: Please indicate if the recorded Selectivity n/i for Nc1cccc(CC2CNCC2NC2CCNC2)n1 (racemic) [Compound P-20] meets or exceeds 100.
Response: Not fulfilled

Request: Is the recorded value of Selectivity n/i equal to or greater than 100 for this molecule? Nc1cccc(CC2CNCC2NC2CCNC2)n1 (racemic) [Compound P-34]
Response: Fulfilled

###

# STUDY_TARGET: rat nNOS (Rattus norvegicus, UniProt P29476)
# Construct: made in house; host or cells: E. coli (plasmid pCWnNOS)
# ASSAY_COMMENT: NOS enzyme inhibitory assay (hemoglobin capture), nNOS
# Format: biochemical
# CONDITION_DETAILS: Table 1b; read-out: Ki nNOS
# Protocol: All of the NOS isoforms used were recombinant enzymes overexpressed in E. coli from different sources. Nitric oxide formation from NOS was monitored by the hemoglobin capture assay as described in the literature. After approximately 48 h of post-induction incubation in the dark at 25° C. the cells were pelleted at 5300×g, transferred to 50 mL conical tubes, and stored at −80° C. […] Nitric oxide formation from NOS was monitored by the hemoglobin capture assay as described previously. […]
Mark t for Ki under 200 nM, f if at or over.

Request: Problem: For the compound Cc1cc(N)nc(C[C@@H]2CNC[C@@H]2NCCOCCc2cccc(F)c2)c1 (racemic) [Compound P-78] , is Ki under 200 nM?
Response: f

Request: Confirm or reject: Ki of Cc1cc(N)nc(C[C@H]2CNC[C@@H]2NCCNCc2ccc(Cl)cc2Cl)c1.Cl.Cl.Cl.Cl (racemic) [Compound P-66] lies strictly below 200 nM
Response: f

Request: Quick check: Ki of Cc1cc(N)nc(CC2CNCC2NCCNCc2ccc(Cl)c(Cl)c2)c1.Cl.Cl.Cl.Cl (racemic) [Compound P-60] under 200 nM?
Response: t

Request: Confirm or reject: Ki of Cc1cccc(CNCCN[C@H]2CNC[C@@H]2Cc2cc(C)cc(N)n2)c1.Cl.Cl.Cl.Cl (racemic) [Compound P-59] lies strictly below 200 nM
Response: f

Request: Please check: Ki for Cc1cc(N)nc(C[C@H]2CNC[C@H]2NCCNCc2ccc(Cl)cc2Cl)c1.Cl.Cl.Cl.Cl (racemic) [Compound P-61] , strictly under 200 nM or not?
Response: t

Request: Report whether reported Ki is lower than 200 nM (strictly) for Cc1cc(N)nc(C[C@H]2CNC[C@H]2OCCNC(=O)Cc2cccc(F)c2)c1.Cl.Cl (racemic) [Compound P-80, dihydrochloride]
Response: f

Request: Take the compound Cc1cc(N)nc(CC2CNCC2NCCNCc2ccc(Cl)c(Cl)c2)c1.Cl.Cl.Cl.Cl (racemic) [Compound P-65] and say whether its Ki is less than 200 nM.
Response: f

Request: I'd appreciate it if you could check whether Cc1cc(N)nc(C[C@H]2CNC[C@@H]2NCCNCc2ccc(F)cc2)c1.Cl.Cl.Cl.Cl (racemic) [Compound P-57] has Ki smaller than 200 nM.
Response: f

Request: Dear colleague, could you confirm whether Ki of Cc1cc(N)nc(C[C@H]2CNC[C@@H]2NCCNCCc2ccc(F)cc2)c1.Cl.Cl.Cl.Cl (racemic) [Compound P-72] falls below 200 nM? Thanks.
Response: t

Request: Identify whether the compound Cc1cc(N)nc(C[C@H]2CNC[C@@H]2OCCN)c1.Cl.Cl.Cl (racemic) [Compound P-81] records Ki below 200 nM.
Response: f

Request: Threshold test, Ki < 200 nM: Cc1cccc(CNCCN[C@@H]2CNC[C@@H]2Cc2cc(C)cc(N)n2)c1.Cl.Cl.Cl.Cl (racemic) [Compound P-53]
Response: t

Request: Confirm or reject: Ki of Cl.Cl.Cl.Cl.Nc1nc(CC2CNCC2NCCNCc2ccc(Cl)cc2)cs1 (racemic) [Compound P-82] lies strictly below 200 nM
Response: f

Request: I'd appreciate it if you could check whether Cc1cc(N)nc(CC2CNCC2NCC(C)NCc2ccc(Cl)cc2)c1.Cl.Cl.Cl.Cl (racemic) [Compound P-68] has Ki smaller than 200 nM.
Response: f

Request: In plain terms, does Cc1cc(N)nc(C[C@H]2CNC[C@H]2NC(=O)CNCCc2cccc(F)c2)c1.Cl.Cl.Cl (racemic) [Compound P-77, trihydrochloride] come in under 200 nM for Ki?
Response: t

Request: Input Cc1cc(N)nc(CC2CNCC2NCCNCCc2ccc(F)cc2)c1.Cl.Cl.Cl.Cl (racemic) [Compound P-70] ; condition: Ki strictly below 200 nM. Does it hold?
Response: t

Request: Is Ki strictly under 200 nM for the entry Cc1cc(N)nc(C[C@H]2CNC[C@H]2NCCNCc2ccc(F)cc2)c1.Cl.Cl.Cl.Cl (racemic) [Compound P-51] ?
Response: t

Request: Regarding Cc1cc(N)nc(CC2CNCC2N(C)CCN(C)CCc2cccc(F)c2)c1.Cl.Cl.Cl.Cl (racemic) [Compound P-74] , kindly confirm whether its Ki is beneath 200 nM.
Response: f

Request: Strictly below 200 nM: is that where Ki of Cc1cc(N)nc(CC2CNCC2NCCNCc2cccc(C(F)(F)F)c2)c1.Cl.Cl.Cl.Cl (racemic) [Compound P-58] sits?
Response: f

Request: Threshold test, Ki < 200 nM: Cc1cc(N)nc(C[C@H]2CNC[C@H]2NC[C@H](C)NCc2ccc(Cl)cc2)c1.Cl.Cl.Cl.Cl (racemic) [Compound P-63]
Response: t

Request: I wonder whether Cc1cc(N)nc(C[C@H]2CNC[C@H]2N(C)CCNCCc2cccc(F)c2)c1.Cl.Cl.Cl.Cl (racemic) [Compound P-75] has Ki below 200 nM. Can you tell?
Response: f
